Source: PubChem BioAssay AID449762

- procedure summary: M. tuberculosis growth inhibition, HTS (AID 449762);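 further: bacterial growth assessed after seven days of incubation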
- experimental parameters: M. tuberculosis H37Rv growth inhibition, 7H9 media; at 25 µM; hits give high values
The whole screen tested about 330,000 compounds, of which about 1,900 (0.58%) were called active. Inconclusive results (about 4%) are left out. These entries were drawn from the full list. Potency and affinity values are given separately.
For each of the compounds below, state its inhibition.
# unit: % | format: bare number

Prompt line: Consider the compound shown here: CN(C)CCCN(C(=O)c1cc2cc([N+](=O)[O-])ccc2s1)c1nc2cc3c(cc2s1)OCCO3 What is its recorded inhibition?
Response line: -1.83

Prompt line: Same thing, different compound: Cc1nc(SCC(=O)N2CCNC2=O)c2ccccc2n1
Response line: 0.14

Prompt line: Same thing, different compound: Cn1c(CC(=O)Nc2ccc(F)cc2)c(Sc2ccccc2)c2ccccc21
Response line: 3.85

Prompt line: Same thing, different compound: Cc1[nH]n(S(=O)(=O)c2ccccc2)c(=O)c1N=Nc1cccc(Cl)c1
Response line: 0.21

Prompt line: Same thing, different compound: Cc1ccc(S(=O)(=O)NCC(=O)N(CC(=O)NCC2CCCO2)c2ccc(Cl)cc2)cc1 (stereo not given)
Response line: -3.29

Prompt line: Same thing, different compound: Cc1nn(CC(=O)NCCCc2ccccc2)c(=O)c2cc3occc3n12
Response line: 3.16

Prompt line: Same thing, different compound: CC(=O)Nc1ccc2c(c1)nc1n2CCOC1
Response line: 8.99

Prompt line: Same thing, different compound: CCCSc1cc(NCCOC(C)=O)c([N+](=O)[O-])c2nonc12
Response line: 14.4

Prompt line: Same thing, different compound: Cc1ccc(OCCNC(=O)CCNS(=O)(=O)c2ccc3ccccc3c2)cc1
Response line: 1.14

Prompt line: Same thing, different compound: O=C(c1cc(COc2ccc(F)cc2F)on1)N1CC[C@@H]2CCCC[C@H]2C1
Response line: 8.08
